For each of the compounds below, state its percentage damage caused to the plant, ECHCG POST.
Test system: Echinochloa crus-galli (ECHCG)
Test: Glasshouse herbicide test, pre- and post-emergence
Format: in vivo
Details: post-emergence, 250 g/h, evaluated after 13 days, five-point scale

compound	recorded_result
CC(=O)NC1CCC2(CC1)CC(=O)C(c1c(C)cc(-c3ccc(C#N)cn3)cc1C)C(=O)C2 (centres unmarked)	5 (5=80-100%)
CC#Cc1cc(C)c(C2C(=O)CC3(CCC(C(=O)NC)C3)CC2=O)c(C)c1 (centres unmarked)	5 (5=80-100%)
CNC(=O)C1CCC2(CC1)CC(=O)C(c1c(C)cc(-c3ccc(F)cn3)cc1C)C(=O)C2 (centres unmarked)	5 (5=80-100%)
CC#Cc1cc(C)c(C2C(=O)CC3(CCC(C(=O)NCCO)CC3)CC2=O)c(C)c1 (centres unmarked)	5 (5=80-100%)
CC#Cc1cc(C)c(C2C(=O)CC3(CCC(C(=O)NOC)CC3)CC2=O)c(C)c1 (centres unmarked)	5 (5=80-100%)

Count: 2. Required value per item: percentage damage caused to the plant, ECHCG POST.
1. CC#Cc1cc(C)c(C2C(=O)CC3(CCC(NC(C)=O)CC3)CC2=O)c(OC)c1 (centres unmarked)
2. CC#Cc1cc(C)c(C2C(=O)CC3(CCC(NC(=O)c4cnco4)CC3)CC2=O)c(C)c1 (centres unmarked)

Result:
1: 5 (5=80-100%); 2: 5 (5=80-100%)

response.value for CNC(=O)C1CCC2(CC1)CC(=O)C(c1c(C)cc(-c3ccc(C#N)cn3)cc1C)C(=O)C2 (centres unmarked) (field: percentage damage caused to the plant, ECHCG POST) = 5 (5=80-100%)

----------
Tested on: Echinochloa crus-galli (ECHCG)
Assay: Glasshouse herbicide test, pre- and post-emergence
Type: in vivo
Details: post-emergence, 250 g/h, evaluated after 13 days, five-point scale
readout_kind: percentage damage caused to the plant, ECHCG POST

compound	assayed_target	recorded_result
Cc1cc(-c2ccc(C#N)cn2)cc(C)c1C1C(=O)CC2(CCC(NC(=O)C3CC3)CC2)CC1=O (stereo not drawn) [Compound 2.029]	Echinochloa crus-galli (ECHCG)	5 (5=80-100%)
CC#Cc1cc(C)c(C2C(=O)CC3(CCC(C(=O)N4CCOCC4)CC3)CC2=O)c(C)c1 (stereo not drawn) [Compound 1.008]	Echinochloa crus-galli (ECHCG)	5 (5=80-100%)

Count: 6. Required value per item: percentage damage caused to the plant, ECHCG POST.
1. CC#Cc1cc(C)c(C2C(=O)CC3(CCC(C(=O)NCCOC)CC3)CC2=O)c(C)c1 (stereo not drawn) [Compound 1.011]
2. CC#Cc1cc(C)c(C2C(=O)CC3(CCC(NC(=O)NC(=O)c4ccccn4)CC3)CC2=O)c(C)c1 (stereo not drawn) [Compound 2.023]
3. CC#Cc1cc(C)c(C2C(=O)CC3(CCC(C(=O)N(C)CCO)CC3)CC2=O)c(C)c1 (stereo not drawn) [Compound 1.009]
4. CC#Cc1cc(C)c(C2C(=O)CC3(CCC(C(=O)Nc4ccccn4)CC3)CC2=O)c(C)c1 (stereo not drawn) [Compound 1.004]
5. CC#Cc1cc(C)c(C2C(=O)CC3(CCC(C(=O)N(C)C)CC3)CC2=O)c(C)c1 (stereo not drawn) [Compound 1.001]
6. CC#Cc1cc(C)c(C2C(=O)CC3(CCC(NC(=O)c4ccccn4)CC3)CC2=O)c(C)c1 (stereo not drawn) [Compound 2.006]

Result:
1: 5 (5=80-100%); 2: 5 (5=80-100%); 3: 5 (5=80-100%); 4: 4 (4=60-79%); 5: 5 (5=80-100%); 6: 5 (5=80-100%)

Count: 4. Required value per item: percentage damage caused to the plant, ECHCG POST.
1. CC#Cc1cc(C)c(C2C(=O)CC3(CCC(NC(=O)C(C)(C)C)CC3)CC2=O)c(C)c1 (stereo not drawn) [Compound 2.005]
2. CC#Cc1cc(C)c(C2C(=O)CC3(CCC(C(=O)NC(C)(C#N)CC)CC3)CC2=O)c(C)c1 (stereo not drawn) [Compound 1.014]
3. CC#Cc1cc(C)c(C2C(=O)CC3(CCC(C(=O)NC(C)(C)C)CC3)CC2=O)c(C)c1 (stereo not drawn) [Compound 1.013]
4. CC#Cc1cc(C)c(C2C(=O)CC3(CCC(C(=O)NC(=O)c4ccccn4)CC3)CC2=O)c(C)c1 (stereo not drawn) [Compound 1.003]

Result:
1: 5 (5=80-100%); 2: 5 (5=80-100%); 3: 5 (5=80-100%); 4: 5 (5=80-100%)

Count: 5. Required value per item: percentage damage caused to the plant, ECHCG POST.
1. CC#Cc1cc(C)c(C2C(=O)CC3(CCC(NC(=O)COC(F)F)CC3)CC2=O)c(C)c1 (stereo not drawn) [Compound 2.008]
2. CC#Cc1cc(C)c(C2C(=O)CC3(CCC(C(=O)N4CCOCC4=O)CC3)CC2=O)c(C)c1 (stereo not drawn) [Compound 1.005]
3. Cc1cc(-c2ccc(C#N)cn2)cc(C)c1C1C(=O)CC2(CCC(C(=O)N(C)C)CC2)CC1=O (stereo not drawn) [Compound 1.021]
4. CC#Cc1cc(C)c(C2C(=O)CC3(CCC(C(=O)NC)CC3)CC2=O)c(OC)c1 (stereo not drawn) [Compound 1.016]
5. CNC(=O)C1CCC2(CC1)CC(=O)C(c1c(C)cc(-c3ncc(F)cc3F)cc1C)C(=O)C2 (stereo not drawn) [Compound 1.023]

Result:
1. 5 (5=80-100%)
2. 5 (5=80-100%)
3. 5 (5=80-100%)
4. 5 (5=80-100%)
5. 5 (5=80-100%)
